# Test system: HEK293
# test_name: Cytotoxic Profiling of Annotated Libraries Using Quantitative High-Throughput Screening (AID 1296008); also: nearly all actives have a fitted effect of over 60% in size
# reported_conditions: Five cell lines viability, CellTiter-Glo ATP luminescence, 48-72 h
# Protocol: Cell-based phenotypic screening is a commonly used approach to discover biological pathways, novel drug targets, chemical probes and high-quality hit-to-lead molecules. […] A pintool (Kalypsys) was used to transfer 23 nL of compound solution to the 1536-well assay plates. […] Plates were left at room temperature for 10 min before imaging the ATP-coupled luminescence using a ViewLux microplate imager (PerkinElmer, Waltham, MA).
Records with an inconclusive call do not appear. Activity calls are given as the source filed them. Calls follow the shape of the dose curve; as a rule, active = well fitted inhibition curve with a large enough effect; inconclusive = small, poorly fitted or top-dose-only effect; inactive = flat fitted curve, though single readings scatter.
Classes used: active, inactive

compound: CCCSc1nc(NC2CC2c2ccc(F)c(F)c2)c2nnn(C3CC(OCCO)C(O)C3O)c2n1 (centres undefined)
classification: active

compound: O=C(CCCCC1CCCCC1)N1CCC(c2cnc[nH]2)CC1
classification: active

compound: CC(=O)NCC1CN(c2ccc(-c3ccc(CNCc4cn[nH]n4)cc3)c(F)c2)C(=O)O1 (centres undefined)
classification: active

compound: CC(CNS(=O)(=O)C(C)C)c1ccc(-c2ccc(C#N)cc2)cc1 (centres undefined)
classification: active

compound: CC1(C)CC[C@]2(C(=O)O)CC[C@]3(C)C(=CCC4[C@@]5(C)C[C@@H](O)[C@H](O)[C@](C)(CO)C5CC[C@]43C)[C@@H]2[C@@H]1O (some centres undefined)
classification: active

compound: O=C(O)CC1(O)C(=O)Nc2ccccc21 (centres undefined)
classification: inactive

compound: CC(O)C1NC(=O)C2CCCN2C1=O (centres undefined)
classification: inactive

compound: C[C@H]1[C@H](C)C[C@@H](C(=O)O)C2CC[C@]3(C)C(=CC[C@@H]4[C@@]5(C)CC[C@H](O)C(C)(C)[C@@H]5CC[C@]43C)[C@@H]21 (some centres undefined)
classification: active

compound: O=c1[nH]ccc2nc(-c3ccc(CN4CCC(c5nc(-c6ccccn6)n[nH]5)CC4)cc3)c(-c3ccccc3)cc12
classification: active
